These entries and their values trace back to patent US20200123233A1.

- system.tested: recombinant his-tagged HA0 trimer from H5N1 strain A/Anhui/1/2005 (Abcam, Cat. No. ab53938) (influenza A virus A/Anhui/1/2005 (H5N1))
- experiment.notes: ELISA on recombinant haemagglutinin, detection with rabbit anti-NANOBODY serum
experimental.readout: ELISA titer (NANOBODY concentration giving extinction 1) (ng/mL)
Numbers only, in ng/mL.

Fill in ELISA titer (NANOBODY concentration giving extinction 1) for each of the 3 binders listed.
1. IV146 (VHH) VHH: QVQLQQSGGGLVQAGGSLRLSCAASGSSFSINAMGWYRQAPGKQRELVAAISSGGSANYADSVKGRFTISRDNAKNTVYLQMNSLKPEDTAVYYCNAGSRFNPFGSAYDYWGQGTQVTVSS
2. IV133 (VHH) VHH: QVQLQQSGGGLVQPGGSLRLSCAASSSGFSFNPMGWYRQAPGKQRELVATMTSGGTTNYADSVKGRFTISRDNAKTTVYLQMNSLKPEDTAVYYCNARGPRRATTGWITDDYWGQGTQVTVSS
3. IV131 (VHH) VHH: QVQLQQSGGGLVQAGGSLRLSCAASGSGFSFNPMGWYRQAPGKQRELVASITSGGTTNYVDSVKGRFTISRGNAKNTVYLQMNSLKPEDTAVYYCAAEGPRRRGSTWYTDNYWGQGTQVTVSS

Result:
[162, 39.1, 36.8]
